So I've got a bunch of compounds here, and I need their GI50 values.
System: OVCAR-3 ovarian
run-description: NCI tumour cell line growth inhibition, 48 h

Illustrative cases are given below, each with its answer.
Nc1ccn(C2OC(CO)C(O)C2O)c(=O)n1 (stereo not drawn)    3.74 µM
CC1CCN(C(=O)OCc2nc3nc(Cl)nc(N4CCOCC4)c3[nH]2)CC1    0.438 µM
Cn1cc(-c2csc(-c3c[nH]c4ccc(Br)cc34)n2)c2cnccc21    2.08 µM
O=C1c2cccc3cccc(c23)C(=O)N1CCCCCN1CCN(CCCCCOc2ccc(-c3nc4ccc(N5CCOCC5)cc4[nH]3)cc2)CC1    6.07 µM
CC1(Br)Cc2ccccc2C1=O (stereo not drawn)    4.11 µM
COc1ccc(-c2nnc(N3CCN(C(=O)CN4CCN(c5ccccc5)CC4)CC3)nc2-c2ccc(OC)cc2)cc1    3.39 µM
Cc1nc2cc(Nc3nc(Nc4ccc(F)cc4)nc(-c4cccs4)n3)ccc2n1Cc1ccccc1    4.87 µM
COc1ccc(C2=C(c3ccc(OC)cc3)C(=O)N3CCCC3C2)cc1 (stereo not drawn)    11.7 µM
COC(=O)c1cc2c(s1)-c1nccc3c1c(nc1ccccc13)C2=O    16.5 µM
CCCCCCCN=C(N)c1ccc(N2CCN(c3ccc(C(N)=NCCCCCCC)cc3)CC2)cc1    0.162 µM

# batch: return GI50 for each of the 5 compounds below
1. O=S(=O)(Nc1ccc(Cl)cc1Cl)c1ccc(-c2cnc(C3CC3)o2)cc1
2. NCCCn1c2c(c3ccc([N+](=O)[O-])cc3c1=O)C(=O)c1ccccc1-2
3. CC1(C)N=C(N)N=C(N)N1c1ccc(CCCCc2ccc(Cl)c(S(=O)(=O)F)c2)c(Cl)c1
4. Cc1cc(N(CCCNc2ccnc3cc(Cl)ccc23)Cc2ccc3c(c2)OCO3)nc(N2CCOCC2)n1
5. CN(C)C(=S)Sc1ccc([N+](=O)[O-])cc1[N+](=O)[O-]

output:
1. 0.439 µM
2. 0.0966 µM
3. 2.22 µM
4. 0.359 µM
5. 0.99 µM

# batch: return GI50 for each of the 3 compounds below
1. COc1ccc(/C(=C\C=C(C#N)C#N)Sc2nc3ccccc3s2)cc1
2. BrCc1cccc(C[P+](c2ccccc2)(c2ccccc2)c2ccccc2)c1
3. COC(=O)C1=CN(CC2=CC(=O)C(C)=CC2=O)C=C(C(=O)OC)C1c1cccc(OC)c1

output:
["8.26 µM", "10.8 µM", "3.51 µM"]
